Below is a list of entries, each paired with its recorded pKd value.
Biological target: T1, p2S (p2 peptide biotinylated through its free cysteine) (human, also: biotinylated (maleimide PEO2-biotin) on one of the two Cys, which one not given here)
T1 construct: The peptide has two cysteines; also called b-p2S
T1 peptide: RPRYACCPGWKRT
Assay: SPR (BIAcore-2000), IgG injected over immobilized p2S peptide
pKd: −log10 of the molar value. Where no end group is shown, it is not given here.

>  <BINDER>
4F11.v14 IgG (antibody, name in Kabat numbering, V domains shown, IgG; Kabat numbering) VH: EIQLVESGGGLVQPGGSLRLSCAASGHTFTTYGMSWVRQAPGKGLEWMGWINTHSGVPTYADDFKGRFTFSLDTSASTAYLQMNSLRAEDTAVYFCARLGSSAVDYWGQGTLVTVSS VL: DIQLTQSPSSLSASVGDRVTITCKASQSVDYDGDSYMSWYQQKPGKAPKLLIYGASNLESGVPSRFSGSGSGTDFTLTISSLQPEDFATYYCQQNNEDPYTFGQGTKVEIKR

>  <pKd>
8.15

$$$$
>  <BINDER>
4F11.v15 IgG (antibody, name in Kabat numbering, V domains shown, IgG; Kabat numbering) VH: EVQLVESGGGLVQPGGSLRLSCAASGHTFTTYGMSWVRQAPGKGLEWVGWINTHSGVPTYADDFKGRFTISLDNSKNTAYLQMNSLRAEDTAVYYCARLGSSAVDYWGQGTLVTVSS VL: DIQMTQSPSSLSASVGDRVTITCKASQSVDYDGDSYMSWYQQKPGKAPKLLIYGASNLESGVPSRFSGSGSGTDFTLTISSLQPEDFATYYCQQNNEDPYTFGQGTKVEIKR

>  <pKd>
7.52

$$$$
>  <BINDER>
4F11.v16 IgG (antibody, name in Kabat numbering, V domains shown, IgG; Kabat numbering) VH: EIQLVESGGGLVQPGGSLRLSCAASGHTFTTYGMSWVRQAPGKGLEWMGWINTHSGVPTYADDFKGRFTFSLDTSASTAYLQMNSLRAEDTAVYFCARLGSSAVDYWGQGTLVTVSS VL: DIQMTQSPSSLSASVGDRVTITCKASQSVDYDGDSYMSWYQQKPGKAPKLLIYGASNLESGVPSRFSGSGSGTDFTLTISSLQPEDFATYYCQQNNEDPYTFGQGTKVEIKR

>  <pKd>
7.77

$$$$
>  <BINDER>
4F11.v13 IgG (antibody, name in Kabat numbering, V domains shown, IgG; Kabat numbering) VH: EVQLVESGGGLVQPGGSLRLSCAASGHTFTTYGMSWVRQAPGKGLEWVGWINTHSGVPTYADDFKGRFTISLDNSKNTAYLQMNSLRAEDTAVYYCARLGSSAVDYWGQGTLVTVSS VL: DIQLTQSPSSLSASVGDRVTITCKASQSVDYDGDSYMSWYQQKPGKAPKLLIYGASNLESGVPSRFSGSGSGTDFTLTISSLQPEDFATYYCQQNNEDPYTFGQGTKVEIKR

>  <pKd>
7.90

$$$$
